Here, each record is paired with measured Km or Ki data.
- system_name: KPC-2 (Klebsiella pneumoniae)
- Construct: made in house; host or cells: E. coli (DH5 and BL21(DE3) named; pET-28a)
- Sequence (Q9F663 25-293, looked up, species assumed): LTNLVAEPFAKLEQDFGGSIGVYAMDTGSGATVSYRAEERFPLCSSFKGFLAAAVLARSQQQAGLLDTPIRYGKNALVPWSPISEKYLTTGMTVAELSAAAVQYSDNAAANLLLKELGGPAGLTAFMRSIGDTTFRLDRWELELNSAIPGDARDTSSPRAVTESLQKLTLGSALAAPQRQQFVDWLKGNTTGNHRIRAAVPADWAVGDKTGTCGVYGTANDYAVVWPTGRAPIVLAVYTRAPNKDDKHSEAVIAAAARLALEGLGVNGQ
- procedure_summary: Steady-state kinetics of antibiotic hydrolysis with inhibitor
- Format: biochemical
- stated_conditions: meropenem, inhibitor concentration as per IC50
assay_endpoint: Km or Ki (μΜ)

O=C(c1ccccc1)C1CCN(C(=O)CN2C(=O)c3ccccc3C2=O)CC1 [D2148] | 491
O=C(CN1C(=O)c2ccccc2S1(=O)=O)c1ccc(O)c(O)c1 [D63] | 511.7

----------
- Test system: E. coli DH5α cells with blaNDM-1 clone
- procedure_summary: microbe, parasite or virus in culture
- Format: cell-based
- stated_conditions: Escherichia coli
Listed here are compounds together with their documented MIC.
assay_endpoint: MIC (µg/mL)

C[C@@H](O)[C@H]1C(=O)N2C(C(=O)O)=C(SCCN=CN)C[C@H]12 | 512
C[C@@H](O)[C@H]1C(=O)N2C(C(=O)O)=C(S[C@@H]3CN[C@H](C(=O)N(C)C)C3)[C@H](C)[C@H]12 | 1020
CO/N=C(\C(=O)N[C@@H]1C(=O)N2C(C(=O)O)=C(COC(C)=O)CS[C@H]12)c1csc(N)n1 | 256
CO[C@@]1(NC(=O)Cc2cccs2)C(=O)N2C(C(=O)O)=C(COC(N)=O)CS[C@@H]21 | 32
